# ASSAY_SYSTEM: Autotaxin (Homo sapiens, UniProt Q13822)
# ASSAY_REMARKS: Inhibition of C-terminal FLAG tagged human recombinant ATX expressed in insect sf9 cells at 10 uM using pNP-TMP as substrate measured every 2 mins for 60 mins by absorbance
ASSAY_READOUT: inhibition (%)

chemical_structure=O=C(COc1ccc(Cl)cc1)N1CCN(c2ccccc2[N+](=O)[O-])CC1 assay_system="Autotaxin (Homo sapiens, UniProt Q13822)" assay_readout=inhibition units_text=% recorded_number=38
chemical_structure=O=C(O)c1cccc(N2CCN(C(=O)COc3ccc(Cl)cc3Cl)CC2)c1 assay_system="Autotaxin (Homo sapiens, UniProt Q13822)" assay_readout=inhibition units_text=% recorded_number=29.5

(a) O=C(COc1ccc(Cl)cc1)N1CCN(c2cccc([N+](=O)[O-])c2)CC1
(b) O=C(COc1ccc(C(F)(F)F)cc1)N1CCN(c2ccccc2[N+](=O)[O-])CC1
(c) O=C(O)c1ccccc1N1CCN(C(=O)COc2ccccc2C(F)(F)F)CC1
In: Order these by inhibition, descending, and give the full ranking. The reply should contain the labels ordered as requested.
Out: b, a, c
(b: 44.7%, a: 23.8%, c: 4.6%)

====

# ASSAY_SYSTEM: Autotaxin (Homo sapiens)
# ASSAY_REMARKS: Inhibition of C-terminal FLAG tagged human recombinant ATX expressed in insect sf9 cells using pNP-TMP as substrate measured every 2 mins for 60 mins by absorbance
pIC50: −log10 of the molar value.
ASSAY_READOUT: pIC50

chemical_structure=O=C(COc1ccc(C(F)(F)F)cc1)N1CCN(c2ccccc2[N+](=O)[O-])CC1 assay_readout=pIC50 recorded_number=4.95

(1) O=C(O)c1cccc(N2CCN(C(=O)COc3cc(Cl)cc(Cl)c3)CC2)c1
(2) O=C(COc1cc(Cl)cc(Cl)c1)N1CCN(c2ccccc2[N+](=O)[O-])CC1
In: Field: lower recorded pIC50 (choose 1 or 2 ) Return value: the label identifying the chosen record.
Out: 2
(2: 4.94, 1: 5.28)

====

# ASSAY_SYSTEM: Autotaxin (Homo sapiens, UniProt Q13822)
# ASSAY_REMARKS: Inhibition of C-terminal FLAG tagged human recombinant ATX expressed in insect sf9 cells at 10 uM using pNP-TMP as substrate measured every 2 mins for 60 mins by absorbance
ASSAY_READOUT: inhibition (%)

chemical_structure=O=C(O)c1ccccc1N1CCN(C(=O)COc2cc(Cl)cc(Cl)c2)CC1 assay_system="Autotaxin (Homo sapiens, UniProt Q13822)" recorded_number=23.4
chemical_structure=O=C(CCCOc1ccc(Cl)cc1Cl)N1CCN(c2ccc([N+](=O)[O-])cc2)CC1 assay_system="Autotaxin (Homo sapiens, UniProt Q13822)" recorded_number=27.7

(a) O=C(O)c1ccccc1N1CCN(C(=O)COc2ccc(F)cc2)CC1
(b) O=C(COc1ccc(Cl)cc1)N1CCN(c2ccc([N+](=O)[O-])cc2)CC1
(c) O=C(O)c1cccc(N2CCN(C(=O)COc3ccccc3F)CC2)c1
(d) O=C(O)c1ccccc1N1CCN(C(=O)COc2cccc(F)c2)CC1
In: Your job: order these 4 records by inhibition, ascending. // rank by listing labels in the order requested
Out: a, d, c, b
(a: -7.2%, d: -4.8%, c: 10.9%, b: 19.9%)
